Test system: recombinant NL-Rluc virus (NL4-3 with Renilla Luciferase gene) in MT-2 cells
Test: Inhibition of HIV replication (NL-Rluc luciferase reporter virus, MT-2 cells)
Assay type: cell-based, human immunodeficiency virus (HIV)
Conditions: NL43, 120 h, read-out: Activity
Structures can show the parent of a compound that is named as a salt.
Readout name: EC50

Data request: Look up EC50 with recombinant NL-Rluc virus (NL4-3 with Renilla Luciferase gene) in MT-2 cells for this compound: CCc1ccc(-c2cc3nc(C)c(C(OC(C)(C)C)C(=O)O)c(-c4cc(F)c5c(c4C)CCCO5)n3n2)cc1 (stereo not shown) [Example 100, TFA salt]
Data returned: 100 to 1000 nM

Data request: Here is the next compound: Cc1nc2cc(-c3ccccc3)nn2c(-c2ccc(C(F)(F)F)cc2)c1C(OC(C)(C)C)C(=O)O (stereo not shown)
Data returned: > 1000 nM

Data request: Please give the result for Cc1nc2cc(-c3cccc(-c4cnn(C)c4)c3)nn2c(-c2cc(F)c3c(c2C)CCCO3)c1[C@H](OC(C)(C)C)C(=O)O too.
Data returned: < 100 nM

Data request: What would you report for Cc1nc2cc(-c3ccccc3)nn2c(-c2ccc(F)cc2)c1C(OC(C)(C)C)C(=O)O (stereo not shown) ?
Data returned: > 1000 nM

Data request: Same question for Cc1nc2cc(-c3ccc4c(c3)CCCC4)nn2c(-c2ccc3c(c2)CCCO3)c1[C@H](OC(C)(C)C)C(=O)O please.
Data returned: < 100 nM

Data request: // same read-out, input: COc1ccc(-c2cccc(-c3cc4nc(C)c([C@H](OC(C)(C)C)C(=O)O)c(-c5cc(F)c6c(c5C)CCCO6)n4n3)c2)cc1 [Example 127, TFA salt]
Data returned: < 100 nM

Data request: One more compound: Cc1ccc(-c2cc3nc(C)c(C(OC(C)(C)C)C(=O)O)c(-c4ccc5c(c4)CCCO5)n3n2)cc1 (stereo not shown)
Data returned: < 100 nM
